- MEASUREMENT TARGET: 5-HT1A receptor (Sus scrofa, UniProt A0A4X1UTF5)
- Construct: Swine hippocampus was homogenized in a 50 mM Tris-Hcl buffer; from tissue; host or cells: swine hippocampus, membrane fraction
- Sequence (A0A4X1UTF5 1-422): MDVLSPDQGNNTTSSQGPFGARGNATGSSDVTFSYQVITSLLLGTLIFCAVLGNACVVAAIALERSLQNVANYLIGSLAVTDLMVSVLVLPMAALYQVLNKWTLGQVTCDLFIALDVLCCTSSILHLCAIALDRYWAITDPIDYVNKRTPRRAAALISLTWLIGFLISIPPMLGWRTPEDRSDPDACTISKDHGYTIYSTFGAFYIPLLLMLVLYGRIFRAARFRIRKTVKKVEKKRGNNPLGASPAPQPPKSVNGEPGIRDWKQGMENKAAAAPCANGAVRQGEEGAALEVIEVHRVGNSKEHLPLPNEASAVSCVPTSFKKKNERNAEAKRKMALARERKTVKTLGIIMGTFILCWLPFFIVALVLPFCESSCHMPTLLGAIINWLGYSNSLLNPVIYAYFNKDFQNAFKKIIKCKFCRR
- PROTOCOL TEXT: Affinity for serotonin 1A receptor: inhibition of [3H]MPPF binding in swine hippocampal membrane fraction
- CONDITION DETAILS: [3H]MPPF 0.5 nM, swine hippocampal membrane, receptor in high affinity (G-protein binding, MgCl2 10 mM) state, 37°C 30 min; read-out: High affinity IC50
Each record is given MET if its reported IC50 is strictly below 0.2 nM. Records at or above 0.2 nM are given NOT MET.

COMPOUND: CNC(=O)c1ccc2ccn(C3CCN(CCc4c(OC)ccc5nc(C)oc45)CC3)c2c1
CATEGORY: NOT MET

COMPOUND: COc1cc2onc(C)c2cc1CCN1CCC(n2ccc3ccc(C(N)=O)cc32)CC1
CATEGORY: NOT MET

COMPOUND: COc1ccc2c(c1CCN1CCC(n3ccc4ccc(C(N)=O)cc43)CC1)OCCC2=O
CATEGORY: NOT MET

COMPOUND: COc1cc2oc(C)nc2cc1CCN1CCC(n2ccc3ccc(C(N)=O)cc32)CC1
CATEGORY: MET

COMPOUND: COc1ccc2c(c1CCN1CCC(n3ccc4ccc(C(N)=O)cc43)CC1)CCC2O (centres unmarked)
CATEGORY: NOT MET

Please turn your attention to the following entry.
Request: Consider the compound COc1ccc2c(c1CCN1CCC(n3ccc4ccc(C(N)=O)cc43)CC1)OCC(C)(C)C2=O . Is its IC50 strictly less than 0.2 nM?
Response: NOT MET

* * *

Provide the reported pIC50 of each item.
- MEASUREMENT TARGET: 5-HT1A receptor (Sus scrofa, UniProt A0A4X1UTF5)
- Construct: Swine hippocampus was homogenized in a 50 mM Tris-Hcl buffer; from tissue; host or cells: swine hippocampus, membrane fraction
- Sequence (A0A4X1UTF5 1-422): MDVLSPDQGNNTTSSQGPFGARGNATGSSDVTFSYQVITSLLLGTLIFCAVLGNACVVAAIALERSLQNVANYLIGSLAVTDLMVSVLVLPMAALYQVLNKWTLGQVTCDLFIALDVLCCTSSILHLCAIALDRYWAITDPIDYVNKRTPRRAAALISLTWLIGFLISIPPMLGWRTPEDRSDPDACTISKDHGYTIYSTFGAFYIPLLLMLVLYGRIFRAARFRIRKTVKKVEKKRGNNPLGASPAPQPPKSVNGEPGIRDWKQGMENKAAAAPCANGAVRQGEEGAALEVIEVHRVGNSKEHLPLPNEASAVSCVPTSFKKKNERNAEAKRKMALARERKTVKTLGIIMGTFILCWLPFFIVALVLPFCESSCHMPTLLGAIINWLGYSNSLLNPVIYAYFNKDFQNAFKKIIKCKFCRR
- PROTOCOL TEXT: Affinity for serotonin 1A receptor: inhibition of [3H]MPPF binding in swine hippocampal membrane fraction
- CONDITION DETAILS: High affinity IC50, [3H]MPPF 0.5 nM, swine hippocampal membrane, receptor in high affinity (G-protein binding, MgCl2 10 mM) state, 37°C 30 min
Give bare numbers, as −log10 of the molar value.

TEST SMILES: COc1cc2cccnc2cc1CCN1CCC(n2ccc3ccc(C(N)=O)cc32)CC1
pIC50: 9.74

Let's switch to this molecule now.
So, COc1ccc2c(C)noc2c1CCN1CCC(n2ccc3ccc(C(N)=O)cc32)CC1 ? Its pIC50 was 9.80

* * *

- MEASUREMENT TARGET: serotonin 1A receptor (Mus musculus, UniProt Q64264)
- Construct: into the rectum of CD-1 (ICR) male mice (25-45 g); from tissue; host or cells: living CD-1 (ICR) male mice (in vivo)
- Sequence (Q64264 whole entry): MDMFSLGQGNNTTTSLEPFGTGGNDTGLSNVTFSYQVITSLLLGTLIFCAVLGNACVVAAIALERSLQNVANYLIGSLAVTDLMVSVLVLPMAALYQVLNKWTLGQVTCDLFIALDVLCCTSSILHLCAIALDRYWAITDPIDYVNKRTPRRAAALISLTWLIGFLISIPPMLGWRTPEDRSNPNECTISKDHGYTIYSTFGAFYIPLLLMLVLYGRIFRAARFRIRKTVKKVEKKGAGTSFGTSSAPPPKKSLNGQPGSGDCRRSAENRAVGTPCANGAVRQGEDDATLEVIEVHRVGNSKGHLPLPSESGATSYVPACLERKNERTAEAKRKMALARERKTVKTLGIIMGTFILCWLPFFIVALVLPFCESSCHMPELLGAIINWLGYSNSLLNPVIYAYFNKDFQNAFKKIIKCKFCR
- PROTOCOL TEXT: Antagonistic effect on serotonin 1A receptor agonist (8-OH-DPAT)-induced hypothermia in mouse
- Type: in vivo
- CONDITION DETAILS: CD-1 (ICR) male mice; inhibition of hypothermia by 8-OH-DPAT 0.5 mg/kg sc; test substance 15 minutes before agonist
Provide the reported ED50 of each item.

The following compounds have reported results that may help.
COMPOUND: CNC(=O)c1ccc2ccn(C3CCN(CCc4c(OC)ccc5c4OC(C)(C)CC5O)CC3)c2c1 (stereo not drawn)
EXPERIMENTAL RESULT: 0.06 mg/kg, sc
--
COMPOUND: CCc1nc2cc(CCN3CCC(n4ccc5ccc(C(N)=O)cc54)CC3)c(OC)cc2o1
EXPERIMENTAL RESULT: 0.35 mg/kg, sc
--
COMPOUND: COc1ccc2c(C)noc2c1CCN1CCC(n2ccc3ccc(C(N)=O)cc32)CC1
EXPERIMENTAL RESULT: 0.3 mg/kg, sc
--
COMPOUND: COc1ccc2c(c1CCN1CCC(n3ccc4ccc(C(N)=O)cc43)CC1)OC(C)(C)CC2=O
EXPERIMENTAL RESULT: 0.1 mg/kg, sc
--
COMPOUND: COc1ccc2c(c1CCN1CCC(n3ccc4ccc(C(N)=O)cc43)CC1)CCC2O (stereo not drawn)
EXPERIMENTAL RESULT: 0.28 mg/kg, sc

Let's switch to this compound now.
So, COc1cc2c(cc1CCN1CCC(n3ccc4ccc(C(N)=O)cc43)CC1)C(=O)CC(C)(C)O2 ? Its ED50 was 0.3 mg/kg, sc

* * *

- MEASUREMENT TARGET: 5-HT1A receptor (Sus scrofa)
- Construct: Swine hippocampus was homogenized in a 50 mM Tris-Hcl buffer; from tissue; host or cells: swine hippocampus, membrane fraction
- PROTOCOL TEXT: Affinity for serotonin 1A receptor: inhibition of [3H]MPPF binding in swine hippocampal membrane fraction
- CONDITION DETAILS: low affinity IC50 divided by high affinity IC50; 1 or smaller = no intrinsic activity, 2 or greater = intrinsic activity
METRIC NAME: L/H ratio
Give bare numbers.

COMPOUND: COc1cc2c(cc1CCN1CCC(n3ccc4ccc(C(N)=O)cc43)CC1)C(=O)CCCO2
L/H ratio: 0.9
//
COMPOUND: COc1ccc2c(c1CCN1CCC(n3ccc4ccc(C(N)=O)cc43)CC1)CCC2O (stereo not drawn)
L/H ratio: 1.2
//
COMPOUND: COc1ccc2cccnc2c1CCN1CCC(n2ccc3ccc(C(N)=O)cc32)CC1
L/H ratio: 0.9
//
COMPOUND: COc1ccc2c(c1CCN1CCC(n3ccc4ccc(C(N)=O)cc43)CC1)OC(C)(C)CC2=O
L/H ratio: 0.8
//
COMPOUND: CCc1nc2ccc(OC)c(CCN3CCC(n4ccc5ccc(C(N)=O)cc54)CC3)c2o1
L/H ratio: 0.8

Let's switch to this compound now.
So, COc1cc2nc(C)oc2cc1CCN1CCC(n2ccc3ccc(C(N)=O)cc32)CC1 ? Its L/H ratio was 1

* * *

- MEASUREMENT TARGET: 5-HT1A receptor (Sus scrofa)
- Construct: Swine hippocampus was homogenized in a 50 mM Tris-Hcl buffer; from tissue; host or cells: swine hippocampus, membrane fraction
- PROTOCOL TEXT: Affinity for serotonin 1A receptor: inhibition of [3H]MPPF binding in swine hippocampal membrane fraction
- CONDITION DETAILS: [3H]MPPF 0.5 nM, swine hippocampal membrane, receptor in low affinity (G-protein non-binding, Gpp(NH)p 1 mM) state, 37°C 30 min; read-out: Low affinity IC50
METRIC NAME: IC50 (nM)
Answers are plain numbers, in nM.

COMPOUND: COc1ccc2oc(C)nc2c1CCN1CCC(n2ccc3ccc(C(N)=O)cc32)CC1
MEASUREMENT TARGET: 5-HT1A receptor (Sus scrofa)
OUTPUT UNIT: nM
EXPERIMENTAL RESULT: 0.3

COMPOUND: CCN1C(=O)CCc2cc(OC)c(CCN3CCC(n4ccc5ccc(C(N)=O)cc54)CC3)cc21
MEASUREMENT TARGET: 5-HT1A receptor (Sus scrofa)
OUTPUT UNIT: nM
EXPERIMENTAL RESULT: 0.12

COMPOUND: CNC(=O)c1ccc2ccn(C3CCN(CCc4c(OC)ccc5c4OC(C)(C)CC5O)CC3)c2c1 (stereo not drawn)
MEASUREMENT TARGET: 5-HT1A receptor (Sus scrofa)
OUTPUT UNIT: nM
EXPERIMENTAL RESULT: 1.1

COMPOUND: CCc1nc2ccc(OC)c(CCN3CCC(n4ccc5ccc(C(N)=O)cc54)CC3)c2o1
MEASUREMENT TARGET: 5-HT1A receptor (Sus scrofa)
OUTPUT UNIT: nM
EXPERIMENTAL RESULT: 0.45

COMPOUND: CCn1c(=O)oc2cc(OC)c(CCN3CCC(n4ccc5ccc(C(N)=O)cc54)CC3)cc21
MEASUREMENT TARGET: 5-HT1A receptor (Sus scrofa)
OUTPUT UNIT: nM
EXPERIMENTAL RESULT: 0.24

Let's switch to this compound now.
So, COc1ccc2c(c1CCN1CCC(n3ccc4ccc(C(N)=O)cc43)CC1)OC1(CCCC1)CC2=O ? Its IC50 was 0.14
